The measurements presented in this section are drawn from patent US20250177334A1.

# experiment_notes: Pharmacokinetic study of compound A2 in rats
# Assay type: in vivo
# measurement_conditions: rat, in vivo, 10 mg/kg, PO, read-out: CL or CL/F

| molecule | uom | CL/F |
| --- | --- | --- |
| Cc1ccc(C(F)(F)F)cc1NS(=O)(=O)c1cccc(C(=O)O)c1 [Compound A2] | mL/min/kg | 2.6 |

----------
# experiment_notes: Pharmacokinetic study of compound A2 in rats
# Type: in vivo
# measurement_conditions: rat, in vivo, 10 mg/kg, PO

| substance_smiles | Cmax / ng/mL |
| --- | --- |
| Cc1ccc(C(F)(F)F)cc1NS(=O)(=O)c1cccc(C(=O)O)c1 | 4590 |
